- Test system: Artemia
- procedure-text: Toxicity against brine shrimp larvae
- Format: organism-based
- conditions: in vivo
property: Activity

Consider the compound CC(C)[C@H]1CC[C@H]([C@@]2(O)CC[C@H]3[C@@H]4CC[C@H]5CC(=O)CC[C@]5(C)[C@H]4CC[C@@]32C)[C@H](O)O1 and give its measured Activity. Non-toxic

// next record CC(C)[C@H]1CC[C@H]([C@@]2(O)CC[C@H]3[C@@H]4CCC5=CC(=O)CC[C@]5(C)[C@H]4CC[C@@]32C)[C@H](O)O1 Non-toxic

Next: CC(C)[C@H]1CC[C@H]([C@@]2(O)CC[C@H]3[C@@H]4CCC5=CC(=O)C=C[C@]5(C)[C@H]4CC[C@@]32C)[C@H](O)O1 Non-toxic

Also need CC(C)[C@H]1CC[C@H]([C@@]2(O)CC[C@H]3[C@@H]4CC[C@H]5CC(=O)C=C[C@]5(C)[C@H]4CC[C@@]32C)[C@H](O)O1 , thanks. Non-toxic
